# methodSummary: NCI Yeast Anticancer Drug Screen. Data for the bub3 strain (AID 167)
# particulars: S. cerevisiae bub3 mutant strain, at 50.0 µM (retest, dose inferred, filed as 5.0), hits give high values
# Procedure: Growth inhibition of yeast strains with defined genetic alterations is measured as a screen for potential anti-cancer activity. Selected strains with alterations in DNA damage repair or cell cycle control were exposed to compounds and growth inhibition was measured relative to vehicle treated controls. The strain used in this assay is bub3
About 79,000 compounds went through this panel and 15% of them were active in at least one assay; those are over-represented in the sample as a whole.
metric: growth inhibition (%)

| compound | measured |
| --- | --- |
| Nc1ccccc1CC(c1c[nH]c2ccccc12)c1c[nH]c2ccccc12 | 26 |
| CCc1ccccc1NC(=O)C(=O)CC(=O)c1ccc(Cl)s1 | 1 |
| C=C(Cl)C(=NC(C)(C)C)Nc1ccccc1Cl | 32 |
| N#CC=Cc1ccc([N+](=O)[O-])s1 (mixture of isomers) | 99 |
| CCCCCCCCN/N=C(/C)CCCCCO | -80 |
| [Cu+2].c1ccc2n[nH]nc2c1 | 99 |

----------
# key: entry, value: growth inhibition
# methodSummary: NCI Yeast Anticancer Drug Screen. Data for the mec2-1 strain (AID 157)
# particulars: S. cerevisiae mec2-1 strain, at 50.0 µM (retest, dose inferred, filed as 5.0), hits give high values
About 79,000 compounds went through this panel and 15% of them were active in at least one assay; those are over-represented in the sample as a whole.

| compound | growth inhibition [%] |
| --- | --- |
| COc1ccc(NC(=O)CC(=O)n2nc(-c3ccccc3)c(N=Nc3ccc(C)cc3)c2-c2ccccc2)cc1 | 28 |
| O=C1COC(=O)/C1=C\C=C\c1ccccc1 | 84 |
| O=[N+]([O-])/C=C/c1cc2c(ccc3ccccc32)[nH]1 | 95 |
| COC(=O)N/N=C(\C)C(CN1CCOCC1)C(c1ccccc1)c1cc2ccccc2oc1=O (stereo not given) | 56 |
| O=C(C[N+]12CN3CN(CN(C3)C1)C2)c1ccc(Cl)cc1Cl | 5 |

----------
# methodSummary: NCI Yeast Anticancer Drug Screen. Data for the rad50 strain (AID 155);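 note: 0% = growth of vehicle-only cultures of the same strain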
# particulars: S. cerevisiae rad50 strain growth inhibition; at 50.0 µM (retest, dose inferred, filed as 5.0)
Compounds without any hit were thinned out: in the full panel of roughly 79,000, 15% have a hit. Active and inactive are the calls of the source. Rule as the data show it: active = growth inhibition above about 70%; inactive = the rest.
Outcomes: label 1 = active, label 0 = inactive

| compound | class |
| --- | --- |
| O=c1oc2ccccc2c(O)c1/C=N\c1nc(-c2ccccc2)cs1 | label 1 |
| CC1COC(=O)O1 (configuration not stated) | label 0 |
| COc1ccc(C2=C(Cl)C(=O)N(c3ccccc3Cl)C(=O)C2(Cl)Cl)cc1 | label 1 |
| Cc1cc(C)c(S(=O)(=O)c2c(C)cc(C)cc2C)c(C)c1 | label 0 |
| c1cc[c]([Sn]([S]c2ccccn2)([c]2ccccc2)[c]2ccccc2)cc1 | label 1 |
| O/N=C(/C[N+]12CN3CN(CN(C3)C1)C2)c1ccc(I)cc1 | label 0 |
| CCCCCCCCCCCCCCCCn1cc(C(O)CN(C)C)c2ccccc21 (configuration not stated) | label 1 |
| CN(Cc1cnc2nc(N[Si](C)(C)C)nc(N[Si](C)(C)C)c2n1)c1ccc(C(=O)NC(CCC(=O)O[Si](C)(C)C)C(=O)O[Si](C)(C)C)cc1 (configuration not stated) | label 1 |
| O=C(Nc1ccc(Cl)cc1)Nc1nnc2nc(C(C(=O)c3ccc(F)cc3)c3nc4nnc(NC(=O)Nc5ccc(Cl)cc5)n4[nH]c3=O)c(=O)[nH]n12 | label 0 |
| CCCCCCSc1nn(CCC#N)c(=O)[nH]c1=O | label 0 |
| N#Cc1cc2c(cc1Cl)Sc1nccn1S2(=O)=O | label 0 |
| Cc1ccc(NCCNCCO)c2c(=O)c3ccccc3sc12 | label 1 |
| CC1=NOC(=O)/C1=C/C=C/c1ccccc1 | label 0 |
| FC(F)(F)COP1(OCC(F)(F)F)=NP(OCC(F)(F)F)(OCC(F)(F)F)=NP(c2ccccc2)(c2ccccc2)=N1 | label 0 |
| Nc1cc(Cl)ccc1C(=O)O | label 1 |
| N/C(=N\OC(=O)Nc1ccccc1)c1ccccc1 | label 0 |
| NC(=O)C12OC3CC(CC(C3)O1)O2 | label 0 |
| Cc1ccc(O)c(Cc2ccc(Cl)cc2)c1 | label 1 |
| COc1ccc(C(=O)C(c2ccc(OC)cc2)C2(O)C(=O)Nc3c(C)cc(Cl)cc32)cc1 (configuration not stated) | label 0 |
| Cc1ccc2nn(-c3ccc(O)cc3)nc2c1 | label 0 |
| CC1=Nc2ccccc2C1C(Cc1ccccc1N)c1c(C)[nH]c2ccccc12 (configuration not stated) | label 1 |
| CC12C=C3CC(OC(=O)c4ccccc4)CCC3(O1)c1ccccc12 (configuration not stated) | label 0 |

Taken from PubChem BioAssay (NCI).
